IC50 listing for selected compounds.
molecular target: PD-1/PD-L1 (Homo sapiens (Human), UniProt Q9NZQ7); assay: PD-1/PD-L1 biochemical protein-protein interaction assay (ALPHA); conditions: 0.3 nM His tagged PD-L1, 2.5 nM biotinylated Fc-PD-1, 60 minutes at 25° C., read-out: IC50 PD-L1-PD1
Sequence (Q9NZQ7 19-238): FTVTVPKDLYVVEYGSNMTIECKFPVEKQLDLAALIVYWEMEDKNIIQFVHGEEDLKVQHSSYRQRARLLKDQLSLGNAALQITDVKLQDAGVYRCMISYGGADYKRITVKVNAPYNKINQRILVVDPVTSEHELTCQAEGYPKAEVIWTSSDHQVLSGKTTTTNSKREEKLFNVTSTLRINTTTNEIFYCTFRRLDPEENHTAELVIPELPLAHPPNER
Could you give me the number in nM? Just the number is fine.

Query: So what IC50 did `COc1nc(-c2cccc(-c3cccc(-c4cnc(CN5CC6(CCC(=O)N6)C5)c(OC5CC5)n4)c3Cl)c2Cl)ccc1CN1CC2(CCC(=O)N2)C1` get with PD-1/PD-L1 (Homo sapiens (Human), UniProt Q9NZQ7)?
Response: 0.12

Continuing:
Query: So what IC50 did `COc1nc(-c2cccc(-c3cccc(-c4cnc(CN[C@@H]5CCOC5)c(OC)n4)c3Cl)c2Cl)cnc1CNC[C@@H]1CCC(=O)N1` get with PD-1/PD-L1 (Homo sapiens (Human), UniProt Q9NZQ7)?
Response: 0.401

Query: So what IC50 did `COc1nc(-c2cccc(-c3cccc(-c4cnc(CN5CC6(CCC(=O)N6)C5)c(OC)n4)c3Cl)c2Cl)cnc1CN1CC(C)(O)C1` get with PD-1/PD-L1 (Homo sapiens (Human), UniProt Q9NZQ7)?
Response: 0.069

====

biological target: PD-1/PD-L1 (Homo sapiens (Human)); assay: PD-1/PD-L1 biochemical protein-protein interaction assay (ALPHA); settings: 0.3 nM His tagged PD-L1, 2.5 nM biotinylated Fc-PD-1, 60 minutes at 25° C., read-out: IC50 PD-L1-PD1
RESULT_TYPE: pIC50
// returns pIC50 (minus log10 of molar concentration), number only

Illustrative cases are given below, each with its answer.
Query: Item under review: `CNc1nc(-c2cccc(-c3cccc(-c4cnc(CN5CCC5)c(NC)n4)c3Cl)c2Cl)cnc1CN1CCC1` . Reported pIC50?
Response: 9.70

Query: Item under review: `CNc1nc(-c2cccc(-c3cccc(-c4cnc(CNC[C@H]5CCC(=O)N5)c(NC)n4)c3Cl)c2Cl)cnc1CNC[C@H]1CCC(=O)N1` . Reported pIC50?
Response: 8.43

Query: Item under review: `COc1nc(-c2cccc(-c3cccc(-c4cnc(CNC[C@@H]5CCC(=O)N5)c(OC)n4)c3Cl)c2Cl)cnc1CNCC[C@H]1CCC(=O)N1` . Reported pIC50?
Response: 9.85

Query: Item under review: `COc1nc(-c2cccc(-c3cccc(-c4cnc(CN[C@H]5C[C@@H](OC(F)F)C5)c(OC)n4)c3Cl)c2Cl)cnc1CNC[C@@H]1CCC(=O)N1` . Reported pIC50?
Response: 9.56

Query: Item under review: `COc1nc(-c2cccc(-c3cccc(-c4cnc(CN5CC6(C5)CS(=O)(=O)C6)c(OC)n4)c3Cl)c2Cl)cnc1CNC[C@@H]1CCC(=O)N1` . Reported pIC50?
Response: 10.19

Shifting focus to the molecule that follows.
Query: Item under review: `COc1nc(-c2cccc(-c3cccc(-c4cnc(CN5CC(C)(O)C5)c(OC)n4)c3Cl)c2Cl)cnc1CN1CC(O)C1` . Reported pIC50?
Response: 10.08

====

Biological target: PD-1/PD-L1 (Homo sapiens (Human))
Assay: PD-1/PD-L1 biochemical protein-protein interaction assay (ALPHA)
Conditions: 0.3 nM His tagged PD-L1, 2.5 nM biotinylated Fc-PD-1, 60 minutes at 25° C., read-out: IC50 PD-L1-PD1
Description: Binding of the protein pairs is measured using a bead based Amplified Luminescent Proximity Homogeneous Assay (ALPHA) platform. […] After an assay reaction time of 60 minutes at 25° C., binding was measured with addition of 20 μg/mL ALPHA assay acceptor beads (anti-His coated) and 20 µg/mL ALPHA assay donor beads (streptavidin coated). IC50 values were calculated from the fit of the dose-response curves to a four-parameter equation.
RESULT_TYPE: pIC50
// returns pIC50 (minus log10 of molar concentration), number only

Query: So what pIC50 did `COc1nc(-c2cccc(-c3cccc(-c4cnc(C5=NCCN5)c(OC)n4)c3Cl)c2Cl)cnc1C1=NCCN1` get with PD-1/PD-L1 (Homo sapiens (Human))?
Response: 10.19

Query: So what pIC50 did `COc1nc(-c2cccc(-c3cccc(-c4cnc(CNC5CCN(C(C)=O)CC5)c(OC)n4)c3Cl)c2Cl)cnc1CNC[C@H]1CCC(=O)N1` get with PD-1/PD-L1 (Homo sapiens (Human))?
Response: 9.95

Shifting focus to the compound that follows.
Query: So what pIC50 did `CCn1cc(CNCc2ncc(-c3cccc(-c4cccc(-c5cnc(CNCc6cnn(CC)c6)c(OC)n5)c4Cl)c3Cl)nc2OC)cn1` get with PD-1/PD-L1 (Homo sapiens (Human))?
Response: 9.48

====

Molecular target: PD-1/PD-L1 (Homo sapiens (Human))
Test: PD-1/PD-L1 biochemical protein-protein interaction assay (ALPHA)
Settings: 0.3 nM His tagged PD-L1, 2.5 nM biotinylated Fc-PD-1, 60 minutes at 25° C., read-out: IC50 PD-L1-PD1
Description: Binding of the protein pairs is measured using a bead based Amplified Luminescent Proximity Homogeneous Assay (ALPHA) platform. […] After an assay reaction time of 60 minutes at 25° C., binding was measured with addition of 20 μg/mL ALPHA assay acceptor beads (anti-His coated) and 20 µg/mL ALPHA assay donor beads (streptavidin coated). IC50 values were calculated from the fit of the dose-response curves to a four-parameter equation.
IC50 listing for selected compounds.
The reply should consist of the numeric value with the unit placed after it.

Illustrative cases are given below, each with its answer.
Query: So what IC50 did `COc1nc(-c2cccc(-c3cccc(-c4ccc(CN5CC(O)C5)c(C#N)c4)c3Cl)c2Cl)cnc1CNC[C@@H]1CCC(=O)N1` get with PD-1/PD-L1 (Homo sapiens (Human))?
Response: 0.396 nM

Query: So what IC50 did `COc1nc(-c2cccc(-c3cccc(-c4cnc(CN5CC(OC)C5)c(OC)n4)c3Cl)c2F)cnc1CN1CC(OC)C1` get with PD-1/PD-L1 (Homo sapiens (Human))?
Response: 0.318 nM

Query: So what IC50 did `COc1nc(-c2cccc(-c3cccc(-c4cnc(CN[C@H]5C[C@H](C(N)=O)C5)c(OC)n4)c3Cl)c2Cl)cnc1CNC[C@@H]1CCC(=O)N1` get with PD-1/PD-L1 (Homo sapiens (Human))?
Response: 0.158 nM

Continuing:
Query: So what IC50 did `COc1nc(-c2cccc(-c3cccc(-c4cnc(CN5C[C@@H](CO)[C@H](C)C5)c(OC)n4)c3Cl)c2Cl)cnc1CN1C[C@@H](CO)[C@H](C)C1` get with PD-1/PD-L1 (Homo sapiens (Human))?
Response: 0.096 nM

Query: So what IC50 did `COc1nc(-c2cccc(-c3cccc(-c4cnc(C5=NCCN5)c(OC)n4)c3Cl)c2Cl)ccc1CN1CC2(CCC(=O)N2)C1` get with PD-1/PD-L1 (Homo sapiens (Human))?
Response: 0.064 nM

Query: So what IC50 did COc1nc(-c2cccc(-c3cccc(-c4cnc(CN5CC6CC6(CO)C5)c(OC)n4)c3Cl)c2Cl)cnc1CNC[C@@H]1CCC(=O)N1 (stereo partly drawn) get with PD-1/PD-L1 (Homo sapiens (Human))?
Response: 0.17 nM

Query: So what IC50 did `COc1nc(-c2cccc(-c3cccc(-c4cnc(CN5CCN[C@@H](C)C5)c(OC)n4)c3Cl)c2Cl)cnc1CNC[C@@H]1CCC(=O)N1` get with PD-1/PD-L1 (Homo sapiens (Human))?
Response: 0.12 nM

====

molecular target: PD-1/PD-L1 (Homo sapiens (Human), UniProt Q9NZQ7); assay: PD-1/PD-L1 biochemical protein-protein interaction assay (ALPHA); conditions: 0.3 nM His tagged PD-L1, 2.5 nM biotinylated Fc-PD-1, 60 minutes at 25° C., read-out: IC50 PD-L1-PD1
RESULT_TYPE: pIC50
// returns pIC50 (minus log10 of molar concentration), number only

Illustrative cases are given below, each with its answer.
Query: Item under review: COc1nc(-c2cccc(-c3cccc(-c4cnc(CNC[C@H]5C[C@@H](O)C5)c(OC)n4)c3Cl)c2Cl)cnc1CNC[C@@H]1CCC(=O)N1 [compound 172] . Reported pIC50?
Response: 9.65

Query: Item under review: COc1nc(-c2cccc(-c3cccc(-c4cnc(CN5CC[C@@H](C(C)(C)O)C5)c(OC)n4)c3Cl)c2Cl)cnc1CN1CC[C@@H](C(C)(C)O)C1 [compound 499] . Reported pIC50?
Response: 9.69

Shifting focus to the compound that follows.
Query: Item under review: COc1nc(-c2cccc(-c3cccc(-c4cnc(CNC[C@@H]5CCC(=O)N5)c(OC)n4)c3Cl)c2Cl)cnc1CNCCc1cn[nH]c1 [compound 49] . Reported pIC50?
Response: 9.45

====

molecular target: PD-1/PD-L1 (Homo sapiens (Human)); experiment: PD-1/PD-L1 biochemical protein-protein interaction assay (ALPHA); details: 0.3 nM His tagged PD-L1, 2.5 nM biotinylated Fc-PD-1, 60 minutes at 25° C., read-out: IC50 PD-L1-PD1
Ranges used to classify IC50: zone 1 = under 0.1 nM, zone 2 = from 0.1 nM up to 0.3 nM, zone 3 = 0.3 nM and over

Query: Exam item: assign `CNc1nc(-c2cccc(-c3cccc(-c4cnc(CN5CCCC5)c(NC)n4)c3Cl)c2Cl)cnc1CN1CCCC1` to the correct category.
Response: zone 3

Query: Exam item: assign `COc1nc(-c2cccc(-c3cccc(-c4cnc(CNC[C@@H]5CCC(=O)N5)c(OC)n4)c3Cl)c2Cl)cnc1CNCCn1ccc(C)n1` to the correct category.
Response: zone 2

Query: Exam item: assign `COc1nc(-c2cccc(-c3cccc(-c4cnc(CNC[C@@H]5CCC(=O)N5)c(OC)n4)c3Cl)c2Cl)ccc1CN1CCC(C(N)=O)CC1` to the correct category.
Response: zone 2

Query: Exam item: assign `COc1nc(-c2cccc(-c3cccc(-c4cnc(CNCCO)c(OC)n4)c3F)c2Cl)ccc1CNCCO` to the correct category.
Response: zone 2

Query: Exam item: assign `COc1nc(-c2cccc(-c3cccc(-c4cnc(CNC[C@@H]5CCC(=O)N5)c(OC)n4)c3Cl)c2Cl)cnc1CNCc1ccccn1` to the correct category.
Response: zone 2

Query: Exam item: assign `COc1nc(-c2cccc(-c3cccc(-c4cnc(C5=NC[C@H](C)N5)c(OC)n4)c3Cl)c2Cl)cnc1CNC[C@@H]1CCC(=O)N1` to the correct category.
Response: zone 1

Query: Exam item: assign `COc1nc(-c2cccc(-c3cccc(-c4cnc(CNCC5(C#N)CC5)c(OC)n4)c3Cl)c2Cl)cnc1CNC[C@@H]1CCC(=O)N1` to the correct category.
Response: zone 3

Query: Exam item: assign `COc1nc(-c2cccc(-c3cccc(-c4cnc(CN5CC[C@@H](C(N)=O)C5)c(OC)n4)c3Cl)c2Cl)cnc1CNC[C@@H]1CCC(=O)N1` to the correct category.
Response: zone 1

Query: Exam item: assign `CCn1cc(CNCc2ncc(-c3cccc(-c4cccc(-c5cnc(CNC[C@@H]6CCC(=O)N6)c(OC)n5)c4Cl)c3Cl)nc2OC)nn1` to the correct category.
Response: zone 2

Query: Exam item: assign `COc1nc(-c2cccc(-c3cccc(-c4cnc(CN[C@H]5C[C@H](S(C)(=O)=O)C5)c(OC)n4)c3Cl)c2Cl)cnc1CNC[C@@H]1CCC(=O)N1` to the correct category.
Response: zone 1

Continuing:
Query: Exam item: assign `COc1nc(-c2cccc(-c3cccc(-c4cnc(CNCC5(O)COC5)c(OC)n4)c3Cl)c2Cl)cnc1CNC[C@@H]1CCC(=O)N1` to the correct category.
Response: zone 2

Query: Exam item: assign COc1nc(-c2cccc(-c3cccc(-c4cnc(CN5CCCC(NC(C)=O)C5)c(OC)n4)c3Cl)c2Cl)cnc1CNC[C@H]1CCC(=O)N1 (stereo partly drawn) to the correct category.
Response: zone 3
